Biological target: human kisspeptin receptor (Homo sapiens (Human), UniProt Q969F8)
Sequence (Q969F8 whole entry): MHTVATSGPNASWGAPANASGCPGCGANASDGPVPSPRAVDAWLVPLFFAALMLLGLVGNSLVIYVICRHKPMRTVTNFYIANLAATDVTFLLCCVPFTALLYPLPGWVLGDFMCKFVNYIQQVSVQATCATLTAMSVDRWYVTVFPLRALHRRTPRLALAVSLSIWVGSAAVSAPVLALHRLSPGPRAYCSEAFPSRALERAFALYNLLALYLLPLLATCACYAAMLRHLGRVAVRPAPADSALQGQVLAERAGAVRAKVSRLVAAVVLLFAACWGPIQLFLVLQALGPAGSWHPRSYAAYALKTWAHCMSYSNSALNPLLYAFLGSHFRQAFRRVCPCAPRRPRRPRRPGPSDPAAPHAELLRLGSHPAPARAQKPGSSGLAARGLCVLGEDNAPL
Test: Human KISS1R binding assay (membrane competition binding)
Details: 90 min at room temperature; competition with 0.2 nM [125I]-metastin (45-54); Flp-In T-Rex 293 kisspeptin membranes; metal complexes nonradioactive Ga, In, Lu; read-out: hKiSSR Binding Ki (90 min)
pKi: −log10 of the molar value. Square brackets hold non-standard residues; d marks the D form. Peptide text beside a SMILES is read from it. * marks the point of attachment. DOTA = O=C(O)CN1CCN(CC(=O)O)CCN(CC(=O)*)CCN(CC(=O)O)CC1; Gly(N-(3-F-4-Me-benzyl)) = Cc1ccc(CNCC(=O)*)cc1F; Butanoyl(4-(4-MePh)) = Cc1ccc(CCCC(=O)*)cc1; Api(1-amidino) = N=C(N)N1CCC(N)(C(=O)O)CC1; Hydrocinnamoyl(4-I) = O=C(CCc1ccc(I)cc1)*; 2Nal = N[C@@H](Cc1ccc2ccccc2c1)C(=O)O; d2Nal = N[C@H](Cc1ccc2ccccc2c1)C(=O)O; Hyp = O=C(O)[C@@H]1C[C@@H](O)CN1; d4Pal = N[C@H](Cc1ccncc1)C(=O)O; Api = NC1(C(=O)O)CCNCC1; PEG2 = NCCOCCOCCC(=O)O; Ahx = NCCCCCC(=O)O; azaGly = NNC(=O)O; Sar = CNCC(=O)O
reported-endpoint: pKi

INSERT INTO results (molecule, test_system, assay_result) VALUES
  ('Cc1ccc(CCCC(=O)NCCCC[C@@H](NC(=O)CCCCCNC(=O)CN2CCN(CC(=O)O)CCN(CC(=O)O)CCN(CC(=O)O)CC2)C(=O)N[C@H](Cc2ccc(O)cc2)C(=O)N[C@H](Cc2ccc3ccccc3c2)C(=O)N[C@@H](CC(N)=O)C(=O)N[C@H](C(=O)N[C@@H](Cc2ccccc2)C(=O)NNC(=O)N[C@@H](CC(C)C)C(=O)NC2(C(=O)N[C@@H](Cc3c[nH]c4ccccc34)C(N)=O)CCN(C(=N)N)CC2)[C@@H](C)O)cc1 [Compound 335] ({DOTA-Ahx}-[dK](Butanoyl(4-(4-MePh)))[dY][d2Nal]NTF[azaGly]L[Api(1-amidino)]W-NH2)', 'human kisspeptin receptor (Homo sapiens (Human), UniProt Q969F8)', '> 8.00'),
  ('CC(C)C[C@H](NC(=O)NNC(=O)[C@H](Cc1ccccc1)NC(=O)[C@@H](NC(=O)[C@H](CC(N)=O)NC(=O)[C@H](Cc1ccc2ccccc2c1)NC(=O)[C@@H](Cc1ccc(O)cc1)NC(=O)CCCCCNC(=O)CN1CCN(CC(=O)O)CCN(CC(=O)O)CCN(CC(=O)O)CC1)[C@@H](C)O)C(=O)NC1(C(=O)N[C@@H](Cc2ccccc2)C(N)=O)CCN(C(=N)N)CC1 [Compound 277] ({DOTA-Ahx}-[dY][2Nal]NTF[azaGly]L[Api(1-amidino)]F-NH2)', 'human kisspeptin receptor (Homo sapiens (Human), UniProt Q969F8)', '> 8.00'),
  ('CC(C)C[C@H](NC(=O)NNC(=O)[C@H](Cc1ccccc1)NC(=O)[C@@H](NC(=O)[C@H](CC(N)=O)NC(=O)[C@H](CCCCNC(=O)CN1CCN(CC(=O)O)CCN(CC(=O)O)CCN(CC(=O)O)CC1)NC(=O)[C@@H](Cc1ccc(O)cc1)NC(=O)CCOCCOCCNC(=O)CCc1ccc(I)cc1)[C@@H](C)O)C(=O)NC1(C(=O)N[C@@H](Cc2ccc(O)cc2)C(N)=O)CCN(C(=N)N)CC1 [Compound 324] ({Hydrocinnamoyl(4-I)-PEG2}-[dY]K(DOTA)NTF[azaGly]L[Api(1-amidino)]Y-NH2)', 'human kisspeptin receptor (Homo sapiens (Human), UniProt Q969F8)', '> 8.00'),
  ('Cc1ccc(CNCC(=O)N2CCC(NC(=O)[C@H](CC(C)C)NC(=O)NNC(=O)[C@H](Cc3ccccc3)NC(=O)[C@@H](NC(=O)[C@H](CC(N)=O)NC(=O)[C@@H](Cc3ccncc3)NC(=O)[C@@H](Cc3ccc(O)cc3)NC(=O)CCOCCOCCNC(=O)CN3CCN(CC(=O)O)CCN(CC(=O)O)CCN(CC(=O)O)CC3)[C@@H](C)O)(C(=O)N[C@@H](Cc3c[nH]c4ccccc34)C(N)=O)CC2)cc1F [Compound 368] ({DOTA-PEG2}-[dY][d4Pal]NTF[azaGly]L[Api](Gly(N-(3-F-4-Me-benzyl)))W-NH2)', 'human kisspeptin receptor (Homo sapiens (Human), UniProt Q969F8)', '> 8.00'),
  ('Cc1ccc(CNCC(=O)N2CCC(NC(=O)c3ccc(-c4ccccc4OCCNC(=O)[C@H](Cc4ccccc4)NC(=O)CCCCCNC(=O)CN4CCN(CC(=O)O)CCN(CC(=O)O)CCN(CC(=O)O)CC4)cc3)(C(=O)N[C@@H](Cc3c[nH]c4ccccc34)C(N)=O)CC2)cc1F', 'human kisspeptin receptor (Homo sapiens (Human), UniProt Q969F8)', '7.00 to 8.00'),
  ('CC(C)C[C@H](NC(=O)NNC(=O)[C@H](Cc1ccccc1)NC(=O)[C@@H](NC(=O)[C@H](CC(N)=O)NC(=O)[C@@H]1C[C@@H](O)CN1C(=O)[C@@H](Cc1ccc(O)cc1)NC(=O)CCCCCNC(=O)CN1CCN(CC(=O)O)CCN(CC(=O)O)CCN(CC(=O)O)CC1)[C@@H](C)O)C(=O)NC1(C(=O)N[C@@H](Cc2c[nH]c3ccccc23)C(N)=O)CCN(C(=N)N)CC1 [Compound 311] ({DOTA-Ahx}-[dY][Hyp]NTF[azaGly]L[Api(1-amidino)]W-NH2)', 'human kisspeptin receptor (Homo sapiens (Human), UniProt Q969F8)', '> 8.00'),
  ('Cc1ccc(CNCC(=O)N2CCC(NC(=O)[C@H](CC(C)C)NC(=O)CN(C)C(=O)[C@H](Cc3ccccc3)NC(=O)CCCCCNC(=O)CN3CCN(CC(=O)O)CCN(CC(=O)O)CCN(CC(=O)O)CC3)(C(=O)N[C@@H](Cc3c[nH]c4ccccc34)C(N)=O)CC2)cc1F [Compound 12] ({DOTA-Ahx}-F[Sar]L[Api](Gly(N-(3-F-4-Me-benzyl)))W-NH2)', 'human kisspeptin receptor (Homo sapiens (Human), UniProt Q969F8)', '7.00 to 8.00'),
  ('CNCC(=O)N1CCC(NC(=O)[C@H](CC(C)C)NC(=O)NNC(=O)[C@H](Cc2ccccc2)NC(=O)[C@@H](NC(=O)[C@H](CC(N)=O)NC(=O)[C@@H](Cc2ccc3ccccc3c2)NC(=O)[C@H](N)Cc2ccc(O)cc2)[C@@H](C)O)(C(=O)N[C@@H](Cc2c[nH]c3ccccc23)C(N)=O)CC1 [Compound 408] (H-[dY][d2Nal]NTF[azaGly]L[Api](Sar)W-NH2)', 'human kisspeptin receptor (Homo sapiens (Human), UniProt Q969F8)', '> 8.00'),
  ('Cc1ccc(CNCC(=O)N2CCC(NC(=O)[C@H](CC(C)C)NC(=O)NNC(=O)[C@H](Cc3ccccc3)NC(=O)[C@@H](NC(=O)[C@H](CC(N)=O)NC(=O)[C@@H](Cc3ccc4ccccc4c3)NC(=O)[C@@H](Cc3ccc(O)cc3)NC(=O)CNC(=O)CN3CCN(CC(=O)O)CCN(CC(=O)O)CCN(CC(=O)O)CC3)[C@@H](C)O)(C(=O)N[C@@H](Cc3c[nH]c4ccccc34)C(N)=O)CC2)cc1F [Compound 365] ({DOTA}-G[dY][d2Nal]NTF[azaGly]L[Api](Gly(N-(3-F-4-Me-benzyl)))W-NH2)', 'human kisspeptin receptor (Homo sapiens (Human), UniProt Q969F8)', '> 8.00');

Hello, the source for this data is patent US20250312499A1, in case you need it.
